Experimental Target: Cholecystokinin receptor type A (Rattus norvegicus, UniProt P30551)
Sequence (P30551 whole entry): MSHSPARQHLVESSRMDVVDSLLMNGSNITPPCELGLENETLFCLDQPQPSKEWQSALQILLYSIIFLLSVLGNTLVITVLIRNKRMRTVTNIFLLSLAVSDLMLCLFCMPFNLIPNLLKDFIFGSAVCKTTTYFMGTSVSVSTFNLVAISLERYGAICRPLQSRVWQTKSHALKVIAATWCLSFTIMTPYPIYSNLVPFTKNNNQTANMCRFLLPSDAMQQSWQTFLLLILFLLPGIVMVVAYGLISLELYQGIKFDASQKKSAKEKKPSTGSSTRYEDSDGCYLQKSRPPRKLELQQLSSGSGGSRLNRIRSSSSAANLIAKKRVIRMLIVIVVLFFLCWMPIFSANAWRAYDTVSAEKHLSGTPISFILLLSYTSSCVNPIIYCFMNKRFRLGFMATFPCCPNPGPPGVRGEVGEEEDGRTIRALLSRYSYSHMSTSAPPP
Endpoint Label: pIC50
Please keep in mind that pIC50 is minus log10 of the molar concentration; only the number is needed.

Value lookup for pIC50; key = COC(=O)[C@@]1(Cc2ccccc2)C[C@@H]2[C@@H](NC(=O)[C@H](Cc3c[nH]c4ccccc34)NC(=O)OC(C)(C)C)CCCN2C1=O 5.63

Which pIC50 reading was recorded for the molecule CC(C)(C)OC(=O)N[C@@H](Cc1c[nH]c2ccccc12)C(=O)N[C@H]1CCCN2C(=O)[C@@](Cc3ccccc3)(C(N)=O)C[C@H]12 ? 5.99

State the recorded pIC50 for this entry: COC(=O)[C@@]1(Cc2ccccc2)C[C@H]2[C@H](NC(=O)[C@@H](Cc3c[nH]c4ccccc34)NC(=O)C34CC5CC(CC(C5)C3)C4)CCCN2C1=O 6.01

Record request: pIC50 value, item CC1(C)[C@H]2CC[C@@]1(C)[C@H](OC(=O)N[C@](C)(Cc1c[nH]c3ccccc13)C(=O)NC[C@H](NC(=O)CCC(=O)O)c1ccccc1)C2 5.95

* * *

Experimental Target: Gastrin/cholecystokinin type B receptor (Rattus norvegicus)
Sequence (P30553 whole entry): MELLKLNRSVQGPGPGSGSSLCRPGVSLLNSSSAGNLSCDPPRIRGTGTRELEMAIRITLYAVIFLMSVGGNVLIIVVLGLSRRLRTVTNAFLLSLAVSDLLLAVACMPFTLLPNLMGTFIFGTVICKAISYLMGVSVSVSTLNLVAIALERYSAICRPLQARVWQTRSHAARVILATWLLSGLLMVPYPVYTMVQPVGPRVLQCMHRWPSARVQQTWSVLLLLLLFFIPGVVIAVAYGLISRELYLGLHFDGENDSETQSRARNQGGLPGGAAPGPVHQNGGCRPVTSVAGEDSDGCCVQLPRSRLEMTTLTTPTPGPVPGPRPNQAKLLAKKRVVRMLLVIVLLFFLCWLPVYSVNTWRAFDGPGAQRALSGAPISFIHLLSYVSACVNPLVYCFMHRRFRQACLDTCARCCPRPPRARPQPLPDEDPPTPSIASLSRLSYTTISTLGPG
Assay Overview: Binding of [3H]propionyl-CCK-8 to Cholecystokinin type B receptor from rat cerebral cortex.
Assay type: tissue-based
Endpoint Label: pIC50
Please keep in mind that pIC50 is minus log10 of the molar concentration; only the number is needed.

Bench note: what pIC50 did CC(C)(C)OC(=O)N[C@H](Cc1c[nH]c2ccccc12)C(=O)N[C@H]1CCCN2C(=O)[C@](Cc3ccccc3)(C(N)=O)C[C@H]12 show? 6.09

State the recorded pIC50 for this entry: COC(=O)[C@]1(Cc2ccccc2)C[C@@H]2[C@@H](NC(=O)[C@@H](Cc3c[nH]c4ccccc34)NC(=O)OC(C)(C)C)CCCN2C1=O 5.43

Data request, read-out pIC50, for CC1(C)[C@H]2CC[C@@]1(C)[C@H](OC(=O)N[C@](C)(Cc1c[nH]c3ccccc13)C(=O)NC[C@H](NC(=O)CCC(=O)O)c1ccccc1)C2 8.05

GET /values?readout=pIC50&item= COC(=O)[C@@]1(Cc2ccccc2)C[C@H]2[C@H](NC(=O)[C@@H](Cc3c[nH]c4ccccc34)NC(=O)C34CC5CC(CC(C5)C3)C4)CCCN2C1=O 5.66

* * *

So I've got a bunch of compounds here, and I need their pIC50 values.
Experimental Target: Cholecystokinin receptor type A (Rattus norvegicus, UniProt P30551)
Sequence (P30551 whole entry): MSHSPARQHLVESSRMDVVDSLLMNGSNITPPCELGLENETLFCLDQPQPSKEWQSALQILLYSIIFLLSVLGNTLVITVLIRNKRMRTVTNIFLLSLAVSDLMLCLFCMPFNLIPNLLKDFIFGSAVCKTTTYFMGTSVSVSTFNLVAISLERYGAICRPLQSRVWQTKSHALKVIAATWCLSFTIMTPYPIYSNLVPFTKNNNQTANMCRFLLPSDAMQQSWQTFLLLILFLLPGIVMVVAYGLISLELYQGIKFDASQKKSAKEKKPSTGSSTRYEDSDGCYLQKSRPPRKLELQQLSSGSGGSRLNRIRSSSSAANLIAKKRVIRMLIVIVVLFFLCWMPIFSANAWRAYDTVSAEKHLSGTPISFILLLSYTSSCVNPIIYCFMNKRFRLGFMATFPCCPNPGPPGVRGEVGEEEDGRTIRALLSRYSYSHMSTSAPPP
pIC50: −log10 of the molar value.

What value of measured pIC50 is listed for CC(C)(C)OC(=O)N[C@@H](Cc1c[nH]c2ccccc12)C(=O)N[C@H]1CCCN2C(=O)[C@](Cc3ccccc3)(C(N)=O)C[C@H]12 ? < 5.00

# pIC50 lookup, item COC(=O)[C@@]1(Cc2ccccc2)C[C@H]2[C@H](NC(=O)[C@@H](Cc3c[nH]c4ccccc34)NC(=O)OC(C)(C)C)CCCN2C1=O < 5.00

Form field: reported pIC50 of COC(=O)[C@]1(Cc2ccccc2)C[C@H]2[C@H](NC(=O)[C@H](Cc3c[nH]c4ccccc34)NC(=O)OC(C)(C)C)CCCN2C1=O < 5.00
